The binders listed here are annotated with their EC50.
# EXPERIMENTAL_TARGET: T1, AE.A244 gp120 delta 11 (HIV-1)
# T1 construct: also called E.A244gp120Δ11; AE.A244 Δ11 gp120
# ASSAY_REMARKS: ELISA
Numbers only here, please. The scale is nM.

Worked examples follow.
1. CH59 (antibody, V domains shown, also called mAb CH59) VH: EVQLVESGGGLVQPGRSLRLSCAASGFTFDDGAMHWVRQAPGKGLEWVSGISWNSNIIAYADSVKGRFTISRDNAKNSLYLEMNSLRVEDTALYYCAKDSPRGELPLNYWGQGTLVTVSS VL: SYELTQPPSVSVSPGQTARITCSGDALPKNYAYWYQQKSGQAPVLVIYEDSKRPSGIPERFSGSSSGTMATLTISGAQVEDEADYYCYSTDSSGNHRVFGGGTKLTVL	0.087
2. 697D (antibody, V domains shown, also called mAb 697D; V2 conformational mAb 697D) VH: QVQLVQSGAEVKKPGSSVKVSCKASGGNFNTYTISWVRQAPGQGLEWMGRIIPIFGIVNPAQKFPGRVTINVDKSTNTAYMELSSLRSEDTAVYYCATSGVGLHFGYFDYWGQGTQVTVSS VL: QSVLTQPPSVSGAPGQRVTISCTGSSSNIGAHYDVHWYQQLPGTAPKLLIYGNSNRPSGVPDRFSGSKSGTSASLAITGLQAEDEADYYCQSYDSSLSGYVFGTGTKVTVL	0.23

What value of measured EC50 is listed for CH59 reverted unmutated ancestor antibody (antibody, V domains shown, also called CH59 RUA; CH59_RUA) VH: EVQLVESGGGLVQPGRSLRLSCAASGFTFDDYAMHWVRQAPGKGLEWVSGISWNSGSIGYADSVKGRFTISRDNAKNSLYLQMNSLRAEDTALYYCAKDSPRGELPFDYWGQGTLVTVSS VL: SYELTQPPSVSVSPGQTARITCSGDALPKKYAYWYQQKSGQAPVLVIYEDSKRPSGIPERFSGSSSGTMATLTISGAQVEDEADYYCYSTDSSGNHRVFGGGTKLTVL ?
15.5
